# studySystem: T1, human CD33 Fc fusion protein (human, UniProt P20138 18-259)
# T1 construct: also called hCD33-Fc; human CD33/Fc chimera (R&D Systems)
# T1 sequence (P20138 18-259 limits assumed): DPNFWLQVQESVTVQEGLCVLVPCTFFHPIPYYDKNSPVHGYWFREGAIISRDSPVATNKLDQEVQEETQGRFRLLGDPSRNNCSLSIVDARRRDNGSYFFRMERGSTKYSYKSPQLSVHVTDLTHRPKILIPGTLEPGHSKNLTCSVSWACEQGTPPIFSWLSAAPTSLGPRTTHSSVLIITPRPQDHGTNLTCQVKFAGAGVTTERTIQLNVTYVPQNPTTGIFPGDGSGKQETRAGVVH
# assayDetails: RBC adhesion to plate-bound CD33-Fc; antibody 0.5 ug/ml;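 note: Plate-coated CD33-Fc preincubated 1 h with antibody, then red blood cells added for 1 h at room temperature, adherent cells lysed and quantified via peroxidase activity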
measuredParameter: Percent RBC Binding to CD33 (%)
Answers are plain numbers, in %.

Consider the following items and state reported Percent RBC Binding to CD33 for each.
1. C-60 (antibody, V domains shown, human IgG1) VH: QVQLVQSGAEVKKPGASVKVSCKASGYTFTSYYMHWVRQAPGQGLEWMGVINPSGGSTSYAQKFQGRVTMTRDTSTSTVYMELSSLRSEDTAVYYCARESQYYDVHGMDVWGQGTTVTVSS VL: DIQLTQSPSSLSASVGDRVTITCRASQSISSYLNWYQQKPGKAPKLLIYAASSLQSGVPSRFSGSGSGTDFTLTISSLQPEDFATYYCQQSVHVPITFGGGTKVEIK
2. C-13 (antibody, V domains shown, human IgG1) VH: EVQLVESGGGLVQPGGSLRLSCAASGFTFSSYWMSWVRQAPGKGLEWVANIKSDGSEKYYVDSVKGRFTISRDNAKNSLYLQMNSLRAEDTAVYYCARGPSYLASGAFDLWGRGTLVTVSS VL: EIVLTQSPATLSLSPGERATLSCRASQSVSSYLAWYQQKPGQAPRLLIYDASNRATGIPARFSGSGSGTDFTLTISSLEPEDFAVYYCQQAYVVPPRTFGGGTKVEIK
3. C-68 (antibody, V domains shown, human IgG1) VH: QVQLQESGPGLVKPSQTLSLTCTVSGGSISSGGYYWSWIRQHPGKGLEWIGNIYYSGSTYYNPSLKSRVTISVDTSKNQFSLKLSSVTAADTAVYYCARDLPNSGSPGSDYFDYWGQGTLVTVSS VL: EIVLTQSPGTLSLSPGERATLSCRASQSVSSSYLAWYQQKPGQAPRLLIYGASSRATGIPDRFSGSGSGTDFTLTISRLEPEDFAVYYCQQYDNYPPTFGGGTKVEIK
4. C-9 (antibody, V domains shown, human IgG1) VH: QLQLQESGPGLVKPSETLSLTCTVSGGSISSSSYYWGWIRQPPGKGLEWIGSIYYSGSTYYNPSLKSRVTISVDTSKNQFSLKLSSVTAADTAVYYCARESGFAGLDPWGQGTLVTVSS VL: EIVLTQSPGTLSLSPGERATLSCRASQSVSSSFLAWYQQKPGQAPRLLIYGASSRATGIPDRFSGSGSGTDFTLTISRLEPEDFAVYYCQQSEDWPTFGGGTKVEIK
5. C-61 (antibody, V domains shown, human IgG1) VH: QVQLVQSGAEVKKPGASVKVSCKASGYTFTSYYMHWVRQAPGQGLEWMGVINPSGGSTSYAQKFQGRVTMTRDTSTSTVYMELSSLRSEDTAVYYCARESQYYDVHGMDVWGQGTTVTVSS VL: EIVLTQSPGTLSLSPGERATLSCRASQSVSSSYLAWYQQKPGQAPRLLIYGASSRATGIPDRFSGSGSGTDFTLTISRLEPEDFAVYYCQQYYGLPLTFGGGTKVEIK
6. C-66 (antibody, V domains shown, human IgG1) VH: QLQLQESGPGLVKPSETLSLTCTVSGGSISSSSYYWGWIRQPPGKGLEWIGSIYYSGSTYYNPSLKSRVTISVDTSKNQFSLKLSSVTAADTAVYYCAREVGYPYGMDVWGQGTTVTVSS VL: DIQLTQSPSSLSASVGDRVTITCQASQDISNFLNWYQQKPGKAPKLLIYDASNLETGVPSRFSGSGSGTDFTFTISSLQPEDIATYYCQQYSDLPTFGGGTKVEIK
7. C-10 (antibody, V domains shown, human IgG1) VH: QVQLVQSGAEVKKPGSSVKVSCKASGGTFSNYAISWVRQAPGQGLEWMGGIIPIFGTANYAQKFQGRVTITADESTSTAYMELSSLRSEDTAVYYCARDTGTYVTGDGMDVWGQGTTVTVSS VL: EIVMTQSPATLSVSPGERATLSCRASQSVSSNLAWYQQKPGQAPRLLIYGASTRATGIPARFSGSGSGTEFTLTISSLQSEDFAVYYCQQYVNLPITFGGGTKVEIK

1: 10.7; 2: 41.3; 3: 31.6; 4: 27.8; 5: 13.3; 6: 44; 7: 13.8

Data provenance is patent US20220281976A1.
